Would you mind telling me the reported solubility of each entry?
ASSAY_PROTOCOL: Aqueous solubility of compound
CONDITION_INFO: buffer
Answers are plain numbers, in µM.

Worked cases, solubility given:
MOLECULE	solubility (µM)
OC(CNc1nccc(-c2sc(C3CCNCC3)nc2-c2ccc(F)cc2)n1)c1ccncc1 (stereo not given)	225
Fc1ccc(-c2nc(C3CCNCC3)sc2-c2ccnc(N3CCC(N4CCC4)CC3)n2)cc1	114
Cc1cc(Nc2nccc(-c3sc(C4CCNCC4)nc3-c3ccc(F)cc3)n2)on1	66
Fc1ccc(-c2nc(N3CCCC3)sc2-c2ccnc(Nc3ccc(N4CCNCC4)cc3)n2)cc1	54
CN(C)CCNc1nccc(-c2sc(C3CCNCC3)nc2-c2ccc(F)cc2)n1	244

// each listed molecule needs a value for solubility
1. Fc1ccc(-c2nc(C3CCNCC3)sc2-c2ccnc(Nc3ccccn3)n2)cc1
2. Cc1nnc(Nc2nccc(-c3sc(C4CCNCC4)nc3-c3ccc(F)cc3)n2)s1
3. CCOC(=O)N1CCC(c2nc(-c3ccc(F)cc3)c(-c3ccnc(Nc4ccc(N5CCN(C)CC5)cc4)n3)s2)CC1
4. Cc1cc(Nc2nccc(-c3sc(C4CCNCC4)nc3C3CC3)n2)ccn1
5. Nc1nccc(-c2sc(C3CCNCC3)nc2-c2ccc(F)cc2)n1
6. CCc1cc(Nc2nccc(-c3sc(C4CCNCC4)nc3-c3ccc(F)cc3)n2)nc(C)c1F
7. Cc1nccc(Nc2nccc(-c3sc(C4CCNCC4)nc3-c3ccc(F)cc3)n2)n1
8. CN1CCC(C(=O)Nc2nc(-c3ccc(F)cc3)c(-c3ccnc(Nc4ccc(N5CCNCC5)cc4)n3)s2)CC1

Key:
1. 56
2. 74
3. 23
4. 342
5. 467
6. 17
7. 47
8. 11

Return reported solubility values for all items listed beneath this line.
1. Fc1ccc(-c2nc(C3CCNCC3)sc2-c2ccnc(NCCN3CCOCC3)n2)cc1
2. Fc1ccc(-c2nc(N3CCOCC3)sc2-c2ccnc(Nc3ccc(N4CCNCC4)cc3)n2)cc1
3. CN(C)C(CNc1nccc(-c2sc(C3CCNCC3)nc2-c2ccc(F)cc2)n1)C1CC1 (stereo not given)

Key:
408
38
514

Quick request: solubility for each listed item, please.
1. c1cc(Nc2nccc(-c3sc(C4CCNCC4)nc3C3CC3)n2)ncn1
2. Cc1nc(Nc2nccc(-c3sc(C4CCNCC4)nc3-c3ccc(F)cc3)n2)cc(C2CCC2)c1F
3. Fc1ccc(-c2nc(C3CCNCC3)sc2-c2ccnc(NCCN3CCCC3)n2)cc1

Key:
[139, 7, 297]

For every item below, please supply its solubility.
1. Fc1ccc(-c2nc(C3CCNCC3)sc2-c2ccnc(NCCN3CCSCC3)n2)cc1
2. CN1CCN(c2ccc(Nc3nccc(-c4sc(N)nc4-c4ccc(F)cc4)n3)cc2)CC1
3. Cc1nc(Nc2nccc(-c3sc(C4CCNCC4)nc3-c3ccc(F)cc3)n2)ccc1F
4. Nc1nc(-c2ccc(F)cc2)c(-c2ccnc(Nc3ccc(N4CCNCC4)cc3)n2)s1

Key:
1: 491; 2: 8; 3: 16; 4: 24.5

Provide solubility for all items below, preserving their order.
1. Fc1ccc(-c2nc(C3CCNCC3)sc2-c2ccnc(NCC3CCCO3)n2)cc1 (stereo not given)
2. Fc1ccc(-c2nc(C3CCNCC3)sc2-c2ccnc(N3CCC(N4CCOCC4)CC3)n2)cc1

Key:
[299, 251]

* * *

Field: log10 CLH. Provide a value for each of the molecules that follow.
ASSAY_PROTOCOL: Clearance in human liver microsomes at 0.5 uM measured up to 45 mins in presence of NADPH by HPLC-MS/MS analysis
Format: ADME, Microsome
Reminder: these figures are log10 of reported CLH, in mL/min/g before transformation.

Here's what some known entries look like.
MOLECULE	log10 CLH
OC(CNc1nccc(-c2sc(C3CCNCC3)nc2-c2ccc(F)cc2)n1)c1ccncc1 (centres undefined)	0.76
Fc1ccc(-c2nc(C3CCNCC3)sc2-c2ccnc(Nc3cnccn3)n2)cc1	-0.40
Cc1cc(Nc2nccc(-c3sc(C4CCNCC4)nc3-c3ccc(F)cc3)n2)ccn1	-0.02
Fc1ccc(-c2nc(N3CCCC3)sc2-c2ccnc(Nc3ccc(N4CCNCC4)cc3)n2)cc1	-0.23
Fc1ccc(-c2nc(C3CCNCC3)sc2-c2ccnc(Nc3cccnn3)n2)cc1	-0.33

// each molecule listed below needs its log10 CLH
1. CN1CCC(C(=O)Nc2nc(-c3ccc(F)cc3)c(-c3ccnc(Nc4ccc(N5CCNCC5)cc4)n3)s2)CC1
2. Fc1ccc(-c2nc(N3CCOCC3)sc2-c2ccnc(Nc3ccc(N4CCNCC4)cc3)n2)cc1
3. Cc1cc(Nc2nccc(-c3sc(C4CCNCC4)nc3C3CC3)n2)ccn1
4. Nc1nc(-c2ccc(F)cc2)c(-c2ccnc(Nc3ccc(N4CCNCC4)cc3)n2)s1

Key:
-0.40
-0.40
-0.40
-0.28

* * *

ASSAY_PROTOCOL: Aqueous solubility of compound
CONDITION_INFO: buffer
Please provide measured solubility for the entries that follow.
One number for each entry, in µM.

Past entries and their recorded results:
COMPOUND	QUANTITATIVE_READOUT
Fc1ccc(-c2nc(C3CCNCC3)sc2-c2ccnc(Nc3cccnn3)n2)cc1	123
Fc1ccc(-c2nc(C3CCNCC3)sc2-c2ccnc(Nc3cnccn3)n2)cc1	68
OC1CCN(c2nccc(-c3sc(C4CCNCC4)nc3-c3ccc(F)cc3)n2)C1 (stereo not given)	273
CN1CCN(CCNc2nccc(-c3sc(C4CCNCC4)nc3-c3ccc(F)cc3)n2)CC1	238
Nc1nc(-c2ccc(F)cc2)c(-c2ccnc(Nc3ccc(N4CCOCC4)cc3)n2)s1	26
Fc1ccc(-c2nc(C3CCNCC3)sc2-c2ccnc(Nc3ccn(C4CCNCC4)n3)n2)cc1	131

Hi, could you look up solubility for each item in my list?
1. Cc1cc(Nc2nccc(-c3sc(C4CCNCC4)nc3-c3ccc(F)cc3)n2)nn1C
2. O[C@H]1CC[C@H](Nc2nccc(-c3sc(C4CCNCC4)nc3-c3ccc(F)cc3)n2)CC1
3. Fc1ccc(-c2nc(C3CCNCC3)sc2-c2ccnc(N3CCC(CN4CCOCC4)CC3)n2)cc1
4. CCOc1nccc(Nc2nccc(-c3sc(C4CCNCC4)nc3-c3ccc(F)cc3)n2)n1
5. Fc1ccc(-c2nc(C3CCNCC3)sc2-c2ccnc(N3CCCC3)n2)cc1
6. Fc1ccc(-c2nc(C3CCNCC3)oc2-c2ccnc(Nc3ccncn3)n2)cc1
7. CN1CCC(Nc2nccc(-c3sc(C4CCNCC4)nc3-c3ccc(F)cc3)n2)C1 (stereo not given)

Key:
1. 146
2. 287
3. 355
4. 35
5. 374
6. 226
7. 402

Give me solubility for each of these compounds, listed below.
1. OCCNc1nccc(-c2sc(C3CCNCC3)nc2-c2ccc(F)cc2)n1
2. COCCNc1nccc(-c2sc(C3CCNCC3)nc2-c2ccc(F)cc2)n1
3. Cc1csc(Nc2nccc(-c3sc(C4CCNCC4)nc3-c3ccc(F)cc3)n2)n1
4. Fc1ccc(-c2nc(C3CCNCC3)sc2-c2ccnc(Nc3nncs3)n2)cc1
5. CN1CCN(c2ccc(Nc3nccc(-c4sc(C5CCNCC5)nc4-c4ccc(F)cc4)n3)cc2)CC1
6. Cc1cc(Nc2nccc(-c3sc(C4CCNCC4)nc3-c3ccc(F)cc3)n2)ccn1
7. CN1CCC(c2nc(-c3ccc(F)c(NS(C)(=O)=O)c3)c(-c3ccnc(NCC4CC4)n3)s2)CC1

Key:
1. 351
2. 235
3. 40
4. 66
5. 41
6. 410
7. 311
